- Test system: Trichophyton mentagrophytes IFO 5811
- RUN_DESCRIPTION: In vitro antifungal activity (MIC), SGA agar plate, 27° C., 7 days
- Format: cell-based
- TEST_SETTINGS: T. mentagrophytes IFO 5811
ENDPOINT_NAME: MIC value against Trichophyton (µg/mL)

N#C/C(=C1/SC[C@@H](c2ccccc2Br)S1)n1ccnc1 [compound 8] ... 0.04
N#C/C(=C1/SC[C@@H](c2ccccc2C(F)(F)F)S1)n1ccnc1 [compound 10] ... 0.64
N#C/C(=C1/SC[C@@H](c2ccccc2OC(F)F)S1)n1ccnc1 [compound 9] ... 2.56
N#C/C(=C1/SC[C@@H](c2ccc(Br)cc2Cl)S1)n1ccnc1 [compound 13] ... 0.04
N#C/C(=C1/SC[C@@H](c2ccc(F)cc2F)S1)n1ccnc1 [compound 7] ... 0.32

a. N#C/C(=C1/SC[C@@H](c2ccccc2F)S1)n1ccnc1 [compound 5]
b. N#C/C(=C1/SC[C@@H](c2ccc(F)cc2Cl)S1)n1ccnc1 [compound 12]
In the pair a and b , the larger recorded MIC value against Trichophyton belongs to which? Return value: the label identifying the chosen record. a
(a: 0.16 µg/mL, b: 0.04 µg/mL)

* * *

- System: Trichophyton rubrum IFO 6204
- RUN_DESCRIPTION: In vitro antifungal activity (MIC), SGA agar plate, 27° C., 7 days
- Type: cell-based
- TEST_SETTINGS: T. rubrum IFO 6204
ENDPOINT_NAME: MIC value against Trichophyton (µg/mL)

N#C/C(=C1/SC[C@@H](c2ccc(Br)cc2Br)S1)n1ccnc1 [compound 11] ... 0.02
N#C/C(=C1/SC[C@@H](c2ccccc2OC(F)F)S1)n1ccnc1 [compound 9] ... 0.64
N#C/C(=C1/SC[C@@H](c2ccc(F)cc2Cl)S1)n1ccnc1 [compound 12] ... 0.04
N#C/C(=C1/SC[C@@H](c2ccc(F)cc2)S1)n1ccnc1 [Compound No. 1] ... 0.32

I. N#C/C(=C1/SC[C@@H](c2ccc(F)cc2F)S1)n1ccnc1 [compound 7]
II. N#C/C(=C1/SC[C@@H](c2ccccc2C(F)(F)F)S1)n1ccnc1 [compound 10]
III. N#C/C(=C1/SC[C@@H](c2ccccc2Br)S1)n1ccnc1 [compound 8]
Highest MIC value against Trichophyton first, then in falling order down to the smallest. Lab note: record answer as labels in requested order. II, I, III
(II: 0.08 µg/mL, I: 0.04 µg/mL, III: 0.02 µg/mL)

P. N#C/C(=C1/SC[C@@H](c2cccc(Cl)c2)S1)n1ccnc1 [Compound No. 2]
Q. N#C/C(=C1/SC[C@@H](c2ccc(Br)cc2Cl)S1)n1ccnc1 [compound 13]
In the pair P and Q , the larger recorded MIC value against Trichophyton belongs to which? Return value: the label identifying the chosen record. P

* * *

For reference, MIC measured on Trichophyton mentagrophytes IFO 5811:
ENDPOINT_NAME: MIC (µg/mL)

Cc1ccccc1[C@@H]1CS/C(=C(/C#N)n2ccnc2)S1 ... 0.32
N#C/C(=C1/SC[C@@H](c2ccc(F)cc2F)S1)n1ccnc1 ... 0.16
N#C/C(=C1/SC[C@@H](c2ccc(Br)cc2Br)S1)n1ccnc1 ... 0.04
N#C/C(=C1/SC[C@@H](c2cccc(Cl)c2)S1)n1ccnc1 ... 0.64
N#C/C(=C1/SC[C@@H](c2ccccc2F)S1)n1ccnc1 ... 0.08
N#C/C(=C1/SC[C@@H](c2ccccc2OC(F)F)S1)n1ccnc1 ... 1.28
N#C/C(=C1/SC[C@@H](c2ccc(F)cc2)S1)n1ccnc1 ... 0.64

1. N#C/C(=C1/SC[C@@H](c2ccccc2C(F)(F)F)S1)n1ccnc1
2. N#C/C(=C1/SC[C@@H](c2ccc(Br)cc2Cl)S1)n1ccnc1
Among 1 and 2 , whose measured MIC is the smaller figure? Return value: the label identifying the chosen record. 2
(2: 0.02 µg/mL, 1: 0.32 µg/mL)

* * *

For reference, MIC measured on Trichophyton rubrum IFO 6204:
ENDPOINT_NAME: MIC (µg/mL)

N#C/C(=C1/SC[C@@H](c2ccccc2Br)S1)n1ccnc1 [compound 8] ... 0.01
N#C/C(=C1/SC[C@@H](c2ccccc2F)S1)n1ccnc1 [compound 5] ... 0.01
N#C/C(=C1/SC[C@@H](c2ccc(F)cc2Cl)S1)n1ccnc1 [compound 12] ... 0.02
Cc1ccccc1[C@@H]1CS/C(=C(/C#N)n2ccnc2)S1 [compound 6] ... 0.08
N#C/C(=C1/SC[C@@H](c2ccc(F)cc2)S1)n1ccnc1 [Compound No. 1] ... 0.16
N#C/C(=C1/SC[C@@H](c2ccc(Br)cc2Br)S1)n1ccnc1 [compound 11] ... 0.01
N#C/C(=C1/SC[C@@H](c2ccccc2OC(F)F)S1)n1ccnc1 [compound 9] ... 0.32
N#C/C(=C1/SC[C@@H](c2ccc(Cl)cc2)S1)n1ccnc1 [compound 4] ... 0.08
N#C/C(=C1/SC[C@@H](c2ccc(Br)cc2)S1)n1ccnc1 [compound 3] ... 0.08

I. N#C/C(=C1/SC[C@@H](c2ccccc2C(F)(F)F)S1)n1ccnc1 [compound 10]
II. N#C/C(=C1/SC[C@@H](c2ccc(Br)cc2Cl)S1)n1ccnc1 [compound 13]
III. N#C/C(=C1/SC[C@@H](c2ccc(F)cc2F)S1)n1ccnc1 [compound 7]
List the 3 entries from lowest MIC to highest MIC value. Lab note: record answer as labels in requested order. II, III, I
